meta.source: patent US7205302B2

Known melting point of a selection of compounds

Solved cases below.
INSERT INTO results (compound, experimental_value) VALUES
  ('CN(C/C=C\COCC(=O)O)c1cnc(-c2ccccc2)c(-c2ccccc2)n1', '148 to 150 °C'),
  ('O=C(O)COCCCCN(c1cnc(-c2ccccc2)c(-c2ccccc2)n1)C1CCCC1', '101 to 103 °C');

Quick one: melting point for CN(CCCCOCC(=O)O)c1nnc(-c2ccccc2)c(-c2ccccc2)n1 ? 108 to 110 °C

Quick one: O=C(O)COCCCCN(c1cnc(-c2ccccc2)c(-c2ccccc2)n1)C1CCCCC1 130 to 131 °C

###

Known IC50 of a selection of compounds
# Test system: ADP-induced platelet aggregation in human PRP
# EXPERIMENT_DESCRIPTION: Human platelet aggregation inhibition test
# Format: cell-based
# STATED_CONDITIONS: ADP 1×10^−5 M
Counter-ions that a name gives are not always drawn.
Reply numerically in nM, unit not repeated.

Solved cases below.
INSERT INTO measurements (compound, experimental_value) VALUES
  ('Cc1ccc(-c2nnc(N(CCCCOCC(=O)O)C(C)C)nc2-c2ccc(C)cc2)cc1', 400),
  ('CC(C)N(CCCCOCC(=O)O)c1cnc(-c2ccccc2)c(-c2ccccc2)n1', 200),
  ('CC(C)N(CCCCSCC(=O)O)c1cnc(-c2ccccc2)c(-c2ccccc2)n1 [Example 78, sodium salt]', 300),
  ('CN(CCCCOCC(=O)O)c1c[n+]([O-])c(-c2ccccc2)c(-c2ccccc2)n1', 200),
  ('CN(CCCCOCC(=O)O)c1ncc(-c2ccccc2)c(-c2ccccc2)n1', 800),
  ('CN(CCCCOCC(=O)O)c1ccc(-c2ccccc2)c(-c2ccccc2)n1 [Example 46, sodium salt]', 500);

Quick one: IC50 for Cc1ccc(-c2cnc(N(C)CCCCOCC(=O)O)nc2-c2ccc(C)cc2)cc1 ? 200

###

Known melting point of a selection of molecules

Solved cases below.
INSERT INTO results (molecule, experimental_value) VALUES
  ('Cc1ccc(-c2nnc(N(CCCCOCC(=O)O)C(C)C)nc2-c2ccc(C)cc2)cc1 [Example 48]', '119 to 121 °C'),
  ('CN(C/C=C/COCC(=O)O)c1cnc(-c2ccccc2)c(-c2ccccc2)n1 [Example 72]', '128 to 130 °C'),
  ('CC(C)N(CCCC[S+]([O-])CC(=O)O)c1cnc(-c2ccccc2)c(-c2ccccc2)n1 (stereo not shown) [Example 79]', '117 to 120 °C (dec.)'),
  ('O=C(O)COCCCCSc1cnc(-c2ccccc2)c(-c2ccccc2)n1 [Example 76]', '86 to 88 °C'),
  ('CN(CCCCOCC(=O)O)c1c[n+]([O-])c(-c2ccccc2)c(-c2ccccc2)n1 [Example 73]', '185 to 190 °C');

Quick one: melting point for O=C(O)COCCC1CCCN(c2cnc(-c3ccccc3)c(-c3ccccc3)n2)C1 (racemic) [Example 58] ? 139 to 140 °C

Quick one: CN(CCc1cccc(OCC(=O)O)c1)c1cnc(-c2ccccc2)c(-c2ccccc2)n1 [Example 61] 174 to 176 °C

Quick one: CN(CCCCOCC(=O)O)c1cnc(-c2ccc(F)cc2)c(-c2ccc(F)cc2)n1 [Example 52] 116 to 118 °C

Quick one: O=C(O)COCCC1CCN(c2cnc(-c3ccccc3)c(-c3ccccc3)n2)CC1 [Example 54] 173 to 174 °C

Quick one: CC(C)N(CCCCOCC(=O)O)c1nc(-c2ccccc2)c(-c2ccccc2)nc1Cl [Example 47] 136 to 138 °C

Quick one: CN(CCCCCCCCC(=O)O)c1cnc(-c2ccccc2)c(-c2ccccc2)n1 [Example 67] 103 to 105 °C

Quick one: CN(C[C@H](O)c1cccc(OCC(=O)O)c1)c1cnc(-c2ccccc2)c(-c2ccccc2)n1 [Example 59] 158 to 159 °C

###

Known melting point of a selection of compounds

Solved cases below.
INSERT INTO results (compound, experimental_value) VALUES
  ('O=C(O)COCCCCS(=O)(=O)c1cnc(-c2ccccc2)c(-c2ccccc2)n1', '123 to 125 °C'),
  ('CC(C)N(CCCCS(=O)(=O)CC(=O)O)c1cnc(-c2ccccc2)c(-c2ccccc2)n1', '183 to 185 °C'),
  ('CC(C)N(CCCCOCC(=O)O)c1nnc(-c2ccccc2)c(-c2ccccc2)n1', '128 to 130 °C'),
  ('CN(CCCCCC(=O)O)c1cnc(-c2ccccc2)c(-c2ccccc2)n1', '159 to 160 °C');

Quick one: melting point for COc1ccc(-c2ncc(N(C)CCCCOCC(=O)O)nc2-c2ccc(OC)cc2)cc1 ? 128 to 130 °C

Quick one: O=C(O)COCCCCC1CCCN1c1cnc(-c2ccccc2)c(-c2ccccc2)n1 (racemic) 138 to 140 °C

Quick one: CN(CCCCCCC(=O)O)c1cnc(-c2ccccc2)c(-c2ccccc2)n1 114 to 118 °C

Quick one: CN(CC1CCc2c(cccc2OCC(=O)O)C1)c1cnc(-c2ccccc2)c(-c2ccccc2)n1 (stereo not shown) 212 to 213 °C

Quick one: CN(c1cnc(-c2ccccc2)c(-c2ccccc2)n1)C1CCc2c(OCC(=O)O)cccc21 (stereo not shown) 182 to 184 °C

Quick one: CN(CCCCCCCC(=O)O)c1cnc(-c2ccccc2)c(-c2ccccc2)n1 116 to 117 °C

Quick one: Cc1ccc(-c2ncc(N(C)CCCCOCC(=O)O)nc2-c2ccc(C)cc2)cc1 161 to 162 °C

Quick one: Cc1ccc(-c2ncc(N(CCCCOCC(=O)O)C(C)C)nc2-c2ccc(C)cc2)cc1 155 to 156 °C

Quick one: O=C(O)COCCCC1CCCN1c1cnc(-c2ccccc2)c(-c2ccccc2)n1 (racemic) 137 to 139 °C
